# pKi listing for each entry below
target: vanilloid receptor 1 (VR1/TRPV1) (Rattus norvegicus (Rat), UniProt O35433); experiment: FLIPR Ca2+ influx assay on rat dorsal root ganglia cells, capsaicin stimulus (Pharmacological Method I)
Sequence (O35433 whole entry): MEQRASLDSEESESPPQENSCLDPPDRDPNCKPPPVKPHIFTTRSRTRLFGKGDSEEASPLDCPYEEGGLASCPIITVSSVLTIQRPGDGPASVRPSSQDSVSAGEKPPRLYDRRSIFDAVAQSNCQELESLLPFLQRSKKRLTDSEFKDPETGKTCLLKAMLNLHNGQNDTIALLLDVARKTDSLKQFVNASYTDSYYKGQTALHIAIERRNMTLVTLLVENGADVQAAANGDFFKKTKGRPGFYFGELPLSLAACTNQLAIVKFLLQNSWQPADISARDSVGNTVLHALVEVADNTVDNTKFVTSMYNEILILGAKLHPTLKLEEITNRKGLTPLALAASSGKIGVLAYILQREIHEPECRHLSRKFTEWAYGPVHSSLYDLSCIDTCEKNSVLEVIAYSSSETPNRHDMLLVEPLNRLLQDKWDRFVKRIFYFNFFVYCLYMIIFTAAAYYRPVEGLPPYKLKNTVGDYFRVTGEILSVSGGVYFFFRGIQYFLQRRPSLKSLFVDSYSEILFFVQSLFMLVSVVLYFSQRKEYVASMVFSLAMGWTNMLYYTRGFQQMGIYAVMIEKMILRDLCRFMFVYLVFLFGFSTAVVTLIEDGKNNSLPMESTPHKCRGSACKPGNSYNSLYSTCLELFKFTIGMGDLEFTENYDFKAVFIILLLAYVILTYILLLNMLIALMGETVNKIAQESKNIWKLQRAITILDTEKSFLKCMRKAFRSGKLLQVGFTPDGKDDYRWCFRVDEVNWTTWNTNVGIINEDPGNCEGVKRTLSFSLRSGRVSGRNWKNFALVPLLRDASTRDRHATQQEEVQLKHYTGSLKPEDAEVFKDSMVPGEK
The quantity pKi is defined as the negative base-10 logarithm of the molar concentration.

Study these solved cases before continuing.
CC1CCN(c2nc(C(F)(F)F)ccc2CNC(=O)C(C)c2cc(O)c([N+](=O)[O-])c(F)c2)CC1 (stereo not shown) [Example 27] = 8.11
CC1CCN(c2nc(C(F)(F)F)ccc2CNC(=O)Cc2cc(Br)cc(Br)c2)CC1 [Example 2] = 7.22
CC1CCN(c2nc(C(F)(F)F)ccc2CNC(=O)C(C)c2cc(F)c(N)c(F)c2)CC1 (stereo not shown) [Example 26] = 8.47

Which value of pKi has been reported for CC1CCN(c2nc(C(F)(F)F)ccc2CNC(=O)Cc2cc(F)ccc2F)CC1 [Example 7] in the records?
7.20

Which value of pKi has been reported for COc1cc(CC(=O)NCc2ccc(C(F)(F)F)nc2N2CCC(C)CC2)cc(Br)c1N [Example 3] in the records?
7.78

Which value of pKi has been reported for CC1CCN(c2nc(C(F)(F)F)ccc2CNC(=O)Cc2cccc(F)c2)CC1 [Example 4] in the records?
7.10

Which value of pKi has been reported for CC1CCN(c2nc(C(F)(F)F)ccc2CNC(=O)Cc2c(F)cccc2F)CC1 [Example 6] in the records?
6.93

Cited source for all entries: patent US8791268B2
